Entries annotated with measured inhibition of SARS-CoV-2 cytopathic effect
System: Vero E6 infected with SARS-CoV-2
Experimental details: inhibition of SARS-CoV-2 cytopathic effect; higher = more antiviral protection, active = above 15
Experimental conditions: 10000 nM; 48 h
Quantity name: inhibition of SARS-CoV-2 cytopathic effect (%)

compound=C[C@]12CCC(=O)C=C1[C@@H]1C[C@@H]1[C@H]1[C@@H]3[C@@H]4C[C@@H]4[C@@]4(CCC(=O)O4)[C@@]3(C)CC[C@@H]12 unit_info=% measured=5.09
compound=O=C(c1ccc(C(=O)N2CCC(N3CCCC3)CC2)c(Nc2ccccc2)c1)N1CCC(N2CCCC2)CC1 unit_info=% measured=-1.44
compound="CN1CCCN=C1/C=C/c1cccs1 [pyrantel-pamoate]" unit_info=% measured=-3.05
compound=Cc1cc(N2CCCCC2)nc2ccccc12 unit_info=% measured=4.47
compound=CCOc1cc(N2CCC(O)CC2)ccc1Nc1ncc2c(n1)N(C)c1ccccc1C(=O)N2C unit_info=% measured=-1.31
compound=CN(C)CCOc1ccc(/C(=C(/CCCl)c2ccccc2)c2ccccc2)cc1 unit_info=% measured=23.7
compound=FC(F)(F)c1ccc(N2CCNCC2)nc1Cl unit_info=% measured=-3.98
compound=CC(C)COC(=O)c1ccc(N)cc1 unit_info=% measured=1.5
compound=CC(C)(C)c1ccc(CN(Cc2cccc(OCC(=O)O)c2)S(=O)(=O)c2cccnc2)cc1 unit_info=% measured=-2.53
compound=COc1ncc(-c2ccc3nccc(-c4ccnnc4)c3c2)cc1NS(=O)(=O)c1ccc(F)cc1F unit_info=% measured=3.03
compound=N[C@@H](CC(=O)Nc1ccc(Oc2cc(F)c(F)cc2Br)cc1)C(=O)O unit_info=% measured=6.38
compound=CC1(C)OC(=O)C(OCC2CC2)=C1c1ccc(S(C)(=O)=O)cc1 unit_info=% measured=-1.02

* * *

Test system: Vero E6 infected with SARS-CoV-2
Experimental details: SARS-CoV-2 infection rate relative to infected DMSO; higher = more infection, active = 60 or less
Experimental conditions: 24 h
Quantity name: SARS-CoV-2 infection rate (%)

compound="CN(C)CC[C@H](CSc1ccccc1)Nc1ccc(S(=O)(=O)NC(=O)c2ccc(N3CCN(Cc4ccccc4-c4ccc(Cl)cc4)CC3)cc2)cc1[N+](=O)[O-] (10 µM)" measured=108
compound="COc1ccc(NS(=O)(=O)c2ccc(I)cc2)cc1N1CCN(C)CC1 (10 µM)" measured=98.5
compound="N#Cc1cnc2cnc(NCc3cccnc3)cc2c1Nc1ccc(F)c(Cl)c1 (10 µM)" measured=102
compound="CCN(CC)CCOc1ccccc1C(=O)CCc1ccccc1 [etafenone] (10 µM)" measured=97.5
compound="N#CC(c1ccnc(OCc2ccc(CN3CCOCC3)cc2)n1)c1nc2ccccc2s1 (stereo unspecified) (10 µM)" measured=99.5
compound="NS(=O)(=O)c1ccc(C(=O)O)cc1 [carzenide] (10 µM)" measured=102

* * *

Test system: Vero E6 infected with SARS-CoV-2
Experimental details: inhibition of SARS-CoV-2 cytopathic effect; higher = more antiviral protection, active = above 15
Experimental conditions: 1 nM; 48 h
Below is a list of entries, each paired with its recorded inhibition of SARS-CoV-2 cytopathic effect value.
Quantity name: inhibition of SARS-CoV-2 cytopathic effect (%)

compound=Nc1cccc(CNC(=O)c2ccc(Oc3ccc(OCc4cccc(F)c4)cc3)nc2)c1 target_of_assay="Vero E6 infected with SARS-CoV-2" measured=-2.39
compound=Cc1noc2c1-c1ccccc1C(c1ccc(Cl)cc1)=N[C@H]2CC(N)=O target_of_assay="Vero E6 infected with SARS-CoV-2" measured=-3.02
compound="CC1Sc2c(C(=O)O)c(=O)c3cc(F)c(N4CCNCC4)cc3n21 (stereo unspecified) [ulifloxacin]" target_of_assay="Vero E6 infected with SARS-CoV-2" measured=-1.7
compound="N=C(N)N [guanidine]" target_of_assay="Vero E6 infected with SARS-CoV-2" measured=-0.16
compound=Cc1cc(C)cc(C(=O)NOCCCCCC(=O)NO)c1 target_of_assay="Vero E6 infected with SARS-CoV-2" measured=2.07
compound="CN(C)C(=S)SSC(=S)N(C)C [thiram]" target_of_assay="Vero E6 infected with SARS-CoV-2" measured=5.06
compound="Cc1cc2cc3c(C)cc(=O)oc3c(C)c2o1 [trioxsalen]" target_of_assay="Vero E6 infected with SARS-CoV-2" measured=1.96
compound="NC(=O)N1c2ccccc2C=Cc2ccccc21 [carbamazepine]" target_of_assay="Vero E6 infected with SARS-CoV-2" measured=-2.53
compound=CC(C)=CCc1c(O)cc(O)c2c(=O)c(O)c(-c3ccc(C(F)(F)F)cc3)oc12 target_of_assay="Vero E6 infected with SARS-CoV-2" measured=2.04
compound="C#CCOC(=O)C1=CCCN(C)C1 [arecaidine-propargyl-ester]" target_of_assay="Vero E6 infected with SARS-CoV-2" measured=-3.75
compound=COc1cc(N)c(Cl)cc1C(=O)CCC1CCN(CCNS(C)(=O)=O)CC1 target_of_assay="Vero E6 infected with SARS-CoV-2" measured=-0.46
